Origin of values: ChEMBL document CHEMBL1201862

Listed here are molecules together with their documented GI50.
# Tested on: UACC-62
# protocol.details: NCI tumour cell line growth inhibition, 48 h
The source made the active and inactive calls. Rule as the data show it: active = GI50 up to about 1.1 µM and inactive = higher.
measured.property: GI50

molecule=CCOC(=O)Cc1nc2nn(Cc3ccccc3)cc2c(=O)[nH]1 assay_target=UACC-62 measured_property=GI50 recorded_measurement="> 100 µM (inactive)"
molecule=O=C(/C=C/c1cccs1)c1cccc(C(=O)/C=C/c2cccs2)n1 assay_target=UACC-62 measured_property=GI50 recorded_measurement="> 31.2 µM (inactive)"
molecule="Cc1cc(C(O)CNC(C)CCn2cnc3c2c(=O)n(C)c(=O)n3C)ccc1O (centres undefined)" assay_target=UACC-62 measured_property=GI50 recorded_measurement="> 100 µM (inactive)"
molecule=Cn1c2ccc([N+](=O)[O-])cc2c(=O)n1Cc1ccccc1F assay_target=UACC-62 measured_property=GI50 recorded_measurement="48.5 µM (inactive)"
molecule=CC(=O)O[C@H]1C[C@H]2[C@@H](OC(C)=O)/C=C3\C[C@](C)(C(=O)[C@H](O)C(=C1C)C2(C)C)[C@@H](O)C[C@@H]3OC(=O)[C@H](O)[C@H](c1ccccc1)N(C)C assay_target=UACC-62 measured_property=GI50 recorded_measurement="> 100 µM (inactive)"
molecule="COC(=O)[C@@]1(NC(=O)C(CC(=O)OC(C)(C)C)NC(=O)OC(C)(C)C)C[C@H]1C (some centres undefined)" assay_target=UACC-62 measured_property=GI50 recorded_measurement="> 100 µM (inactive)"
molecule=O=C(O)/C(Cl)=C(\Cl)C(=O)Nc1ccc(Cl)c(Cl)c1Cl assay_target=UACC-62 measured_property=GI50 recorded_measurement="13.3 µM (inactive)"
molecule="COC1CC(OC(=O)c2ccccc2)C(OC(=O)c2ccccc2)C(C)O1 (centres undefined)" assay_target=UACC-62 measured_property=GI50 recorded_measurement="> 100 µM (inactive)"
molecule="C=CCCN1CCc2c([nH]c3ccccc23)C1C(=O)O (centres undefined)" assay_target=UACC-62 measured_property=GI50 recorded_measurement="> 100 µM (inactive)"

---

# Tested on: SNB-78
# protocol.details: NCI tumour cell line growth inhibition, 48 h
Active and inactive are the calls of the source. Rule as the data show it: active = GI50 up to about 1.1 µM and inactive = higher.
measured.property: GI50

molecule=CCN(CC)c1cccc2c1/C(=N/O)CCCC2 measured_property=GI50 recorded_measurement="> 100 µM (inactive)"
molecule=CC(=O)NNc1nc(C)c(C(=O)NNC(=O)C(=O)Nc2ccc([N+](=O)[O-])cc2C#N)s1 measured_property=GI50 recorded_measurement="> 100 µM (inactive)"
molecule="Cc1ccc2c(c1)NC(=O)C(N=[N+]=[N-])(c1ccccc1)C2=O (centres undefined)" measured_property=GI50 recorded_measurement="28.1 µM (inactive)"
molecule=CC1CC2C3CCC4=CC(=O)C=CC4(C)C3(F)C(O)CC2(C)C1(O)C(=O)CO.Cc1cc(NS(=O)(=O)c2ccc(/N=N\c3cc(/N=N/c4ccc(S(=O)(=O)Nc5cc(C)nc(C)n5)cc4)c(OC(=O)C(Cl)Cl)c4cccc(NC(=O)C(Cl)Cl)c34)cc2)nc(C)n1 measured_property=GI50 recorded_measurement="33.1 µM (inactive)"
molecule=C[N+](C)(C)CCC(=O)CC[N+](C)(C)C measured_property=GI50 recorded_measurement="22.3 µM (inactive)"
molecule="CCC1OCCN1C(C)C (centres undefined)" measured_property=GI50 recorded_measurement="> 100 µM (inactive)"
molecule=COc1ccc2oc3cccc(NCCN(C)C)c3c(=O)c2c1 measured_property=GI50 recorded_measurement="17.7 µM (inactive)"
molecule=COc1ccc(Br)c(N/N=C2\CCCNC2=O)c1 measured_property=GI50 recorded_measurement="> 100 µM (inactive)"
molecule="CCCCSC1CCSc2c1ccc1ccccc21 (centres undefined)" measured_property=GI50 recorded_measurement="> 100 µM (inactive)"
molecule=NC(=O)C(N)=O measured_property=GI50 recorded_measurement="> 100 µM (inactive)"
molecule="COC(=O)[C@]1(C)CCC[C@@]2(C)C1CCC1=C[C@@]3(C(C)C)CC[C@]12OO3 (some centres undefined)" measured_property=GI50 recorded_measurement="54.3 µM (inactive)"
molecule=Cc1c(C(=O)CSc2nc3ccccc3c(=O)n2-c2ccccc2)c(=O)n(-c2ccccc2)n1C measured_property=GI50 recorded_measurement="45.5 µM (inactive)"
molecule=O=C(O)/C(Cl)=C(\Cl)C(=O)Nc1ccc(Cl)c(Cl)c1Cl measured_property=GI50 recorded_measurement="28.4 µM (inactive)"
molecule=COCCOc1cc(C)cc(/C=C(C)/C=C/C2=C(C)CCCC2(C)C)n1 measured_property=GI50 recorded_measurement="81.3 µM (inactive)"
molecule=FC(F)(F)c1nc(-c2ccccc2)oc1Sc1nnc(Sc2oc(-c3ccccc3)nc2C(F)(F)F)s1 measured_property=GI50 recorded_measurement="34.1 µM (inactive)"
molecule="COC(=O)[C@@]12C=CC(=O)[C@H]3C[C@@H](C(C(C)C)C1)[C@]32OC (some centres undefined)" measured_property=GI50 recorded_measurement="> 100 µM (inactive)"
molecule="COC(=O)C(C(=O)C(=O)Nc1ccc(Br)cc1)c1nc2ccc(Cl)cc2nc1O (centres undefined)" measured_property=GI50 recorded_measurement="> 100 µM (inactive)"
molecule="Cn1cnc([N+](=O)[O-])c1Sc1nc(N)nc2c1ncn2C1OC(CO)C(O)C1O (centres undefined)" measured_property=GI50 recorded_measurement="7.26 µM (inactive)"
molecule=COc1ccc(N(C)CN(C)c2nc(N(C)C)nc(N(C)C)n2)cc1 measured_property=GI50 recorded_measurement="> 100 µM (inactive)"
